Molecular target: UniProt:P52699
Sequence (P52699 whole entry, looked up): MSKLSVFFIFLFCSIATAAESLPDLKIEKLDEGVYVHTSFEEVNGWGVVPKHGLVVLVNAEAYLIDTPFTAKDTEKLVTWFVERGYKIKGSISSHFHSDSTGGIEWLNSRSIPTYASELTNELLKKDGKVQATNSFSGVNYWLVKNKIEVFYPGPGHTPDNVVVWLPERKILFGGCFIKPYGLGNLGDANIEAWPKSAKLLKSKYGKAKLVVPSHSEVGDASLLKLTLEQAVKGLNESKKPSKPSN
Assay: biochemical
Type: biochemical
Settings: fluorescence assay with CCF2-FA substrate; read-out: IMP-1 IC50
pIC50: −log10 of the molar value.
Form field: pIC50 (one value per entry).
measured-endpoint: pIC50

smiles_record=NS(=O)(=O)c1c(C(F)(F)F)ccc(-c2ccc(C3CN(CCC4CCNCC4)C3)cc2)c1-c1nnn[nH]1 measured_endpoint=pIC50 endpoint_result=7.89
smiles_record=NS(=O)(=O)c1cccc(-c2ccc(C(=O)NC3CC3)cc2)c1-c1nn[nH]n1 measured_endpoint=pIC50 endpoint_result=6.96
smiles_record=NS(=O)(=O)c1cccc(-c2cn(S(=O)(=O)c3ccccc3)c3ncccc23)c1-c1nn[nH]n1 measured_endpoint=pIC50 endpoint_result=7.41
smiles_record=NS(=O)(=O)c1cccc(-c2ccccc2)c1-c1nn[nH]n1 measured_endpoint=pIC50 endpoint_result=6.76
smiles_record=NS(=O)(=O)c1c(C(F)(F)F)ccc(-c2ccc3c(c2)CNC3=O)c1-c1nnn[nH]1 measured_endpoint=pIC50 endpoint_result=8.59
smiles_record=CN(Cc1ccccc1)c1ccnc(S(N)(=O)=O)c1-c1nnn[nH]1 measured_endpoint=pIC50 endpoint_result=6.33
smiles_record=Nc1ccc(-c2ccnc(S(N)(=O)=O)c2-c2nn[nH]n2)cn1 measured_endpoint=pIC50 endpoint_result=5.73
smiles_record=NS(=O)(=O)c1cccc(-c2ccc3[nH]nnc3c2)c1-c1nn[nH]n1 measured_endpoint=pIC50 endpoint_result=5.79
